Origin of the recorded values: paper PMC11882969

- test_target: UniProt P21554
- assay_protocol: bioSensAll ebBRET signaling profiling, hCB1
- Type: cell-based
- Parameters: host or cells: HEK293SL cells, transient PEI transfection
- conditions: Log [Compound] (M) -11.0177; single replicate values, FigS6a
value_kind: Gi1 hCB1

[
  {
    "molecule": "CC(=O)C(c1cccs1)N(C)C(=O)c1cc(C)n(-c2cccc(C(F)(F)F)c2)n1 (centres unmarked)",
    "val": 3.142
  },
  {
    "molecule": "Cc1cc(C(=O)N2CC3(CCC3)[C@@H]2[C@@H]2CCCO2)nn1-c1cccc(C(F)(F)F)c1",
    "val": 0.7982
  },
  {
    "molecule": "Cn1nc(-c2nnc(C(C)(C)Oc3ccc(Cl)cc3)o2)c2ccccc2c1=O",
    "val": -5.524
  },
  {
    "molecule": "COC(=O)C(NC(=O)c1cc(C)n(-c2cccc(F)c2)n1)c1cccs1 (centres unmarked)",
    "val": 0.3974
  },
  {
    "molecule": "Cc1c(C(=O)OCC2CSc3ccccc3O2)cnn1Cc1ccccc1 (centres unmarked)",
    "val": -3.528
  }
]

====

- test_target: hCB1 (Homo sapiens)
- Sequence (P21554 whole entry): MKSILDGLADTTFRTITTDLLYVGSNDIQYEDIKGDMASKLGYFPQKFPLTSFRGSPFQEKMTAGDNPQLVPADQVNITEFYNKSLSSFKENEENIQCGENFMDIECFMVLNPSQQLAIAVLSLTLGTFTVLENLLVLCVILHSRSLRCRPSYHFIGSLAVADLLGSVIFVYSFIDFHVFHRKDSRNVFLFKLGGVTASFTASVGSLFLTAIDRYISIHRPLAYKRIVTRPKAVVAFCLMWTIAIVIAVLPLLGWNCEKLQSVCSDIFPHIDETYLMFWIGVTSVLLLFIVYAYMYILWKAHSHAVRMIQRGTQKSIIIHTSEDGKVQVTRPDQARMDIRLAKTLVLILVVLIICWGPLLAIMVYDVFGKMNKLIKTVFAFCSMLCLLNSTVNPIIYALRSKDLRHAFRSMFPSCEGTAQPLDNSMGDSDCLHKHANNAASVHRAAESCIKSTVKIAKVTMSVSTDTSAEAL
- assay_protocol: bioSensAll ebBRET signaling profiling, hCB1
- Assay type: cell-based
- Set-up: host or cells: HEK293SL cells, transient PEI transfection
- conditions: Gi1 biosensor; Log [Compound] (M) -6.72585
value_kind: Gi1 hCB1 response

[
  {
    "compound": "Cc1cc(C(=O)N2CC3(CCC3)[C@H]2[C@H]2CCCO2)nn1-c1cccc(C(F)(F)F)c1",
    "val": 13.9098
  },
  {
    "compound": "COC(=O)C(NC(=O)c1cc(C)n(-c2cccc(F)c2)n1)c1cccs1 (centres unmarked)",
    "val": 33.2921
  },
  {
    "compound": "Cc1cc(C(=O)NC(c2ccccc2)c2ccco2)nn1-c1cccc(C#N)c1 (centres unmarked)",
    "val": 46.4524
  },
  {
    "compound": "Cc1cc(C(=O)N2CC3(CCC3)[C@@H]2[C@@H]2CCCO2)nn1-c1cccc(C(F)(F)F)c1",
    "val": -4.577
  },
  {
    "compound": "Cc1cc(C(=O)N2CC3(CCC3)[C@H]2[C@@H]2CCCO2)nn1-c1cccc(C(F)(F)F)c1",
    "val": 15.275
  },
  {
    "compound": "COC(=O)[C@@H]1[C@@H]2CCC[C@@H]2CN1C(=O)c1cc(C)n(-c2cccc(C(F)(F)F)c2)n1",
    "val": 60.217
  },
  {
    "compound": "Cc1cc(C(=O)NC(c2ccco2)c2ccco2)nn1-c1cccc(C(F)(F)F)c1",
    "val": 69.6395
  },
  {
    "compound": "COC(=O)[C@@H]1[C@@H]2CC[C@@H]2CN1C(=O)c1cc(C)n(-c2cccc(C(F)(F)F)c2)n1",
    "val": 36.0226
  },
  {
    "compound": "COC(=O)[C@@H]1[C@@H]2CCC[C@@H]2CN1C(=O)c1cc(C)n(-c2cccc(Cl)c2)n1 (racemic)",
    "val": 30.3601
  },
  {
    "compound": "Cc1cc(C(=O)N2CC3(CCC3)[C@@H]2[C@H]2CCCO2)nn1-c1cccc(C(F)(F)F)c1 (single isomer, unassigned)",
    "val": 6.524
  },
  {
    "compound": "Cc1cc(C(=O)N(C)C(c2ccco2)c2ccco2)nn1-c1cccc(C(F)(F)F)c1",
    "val": 2.07
  },
  {
    "compound": "COC(=O)[C@](C)(NC(=O)c1cc(C)n(-c2cccc(C(F)(F)F)c2)n1)c1cccs1",
    "val": 77.4731
  },
  {
    "compound": "COc1cccc(C(NC(=O)c2cc(C)n(-c3cccc(C(F)(F)F)c3)n2)c2ccco2)c1 (centres unmarked)",
    "val": -9.994
  },
  {
    "compound": "COC(=O)C(NC(=O)c1cc(C)n(-c2cccc(C(F)(F)F)c2)n1)c1cccs1 (centres unmarked)",
    "val": 85.0156
  },
  {
    "compound": "Cc1cc(C(=O)NC(c2ccccc2)c2ccco2)nn1-c1cccc(C(F)(F)F)c1 (centres unmarked)",
    "val": 23.6233
  },
  {
    "compound": "Cc1cc(C(=O)N(C)C(c2ccccc2)c2ccco2)nn1-c1cccc(C(F)(F)F)c1 (centres unmarked)",
    "val": 12.7459
  },
  {
    "compound": "CC(=O)C(c1cccs1)N(C)C(=O)c1cc(C)n(-c2cccc(C(F)(F)F)c2)n1 (centres unmarked)",
    "val": 9.501
  }
]
